Let's go through some pIC50 measurements on HpSK (H. pylori shikimate kinase) (Helicobacter pylori, UniProt P56073) together.
Sequence (P56073 whole entry): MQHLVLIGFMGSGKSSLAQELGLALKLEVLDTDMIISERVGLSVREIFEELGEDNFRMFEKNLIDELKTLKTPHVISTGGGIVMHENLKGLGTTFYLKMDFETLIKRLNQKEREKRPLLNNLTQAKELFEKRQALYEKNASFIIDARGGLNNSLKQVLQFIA
One number for each entry, as −log10 of the molar value.

Answered examples (4):
molecule	pIC50
N=C(NO)c1ccc(Oc2cc(Cl)cc(Cl)c2)c([N+](=O)[O-])c1	4.05
O=C1Nc2ccc(I)cc2/C1=C/c1cc(Br)c(O)c(Br)c1 [Compound 10, reference compound]	4.50
O=C(NNC(=O)C1c2ccccc2Oc2ccccc21)c1cccc(F)c1	4.40
O=C1c2cccc3cc([N+](=O)[O-])cc(c23)C(=O)N1c1ccc(S(=O)(=O)Nc2ccc(C(F)(F)F)cc2)cc1	4.10

Hi there! I need pIC50 for each item below, if you can.
1. Nc1ccc2c(O)c(/N=N/c3ccc4c(O)cc(S(=O)(=O)O)cc4c3)c(S(=O)(=O)O)cc2c1
2. N#C/C(=C/c1ccc(O)c(O)c1)C(=O)c1ccc(O)c(O)c1 [Compound 9, reference compound]

1: 5.31; 2: 5.64

FYI, the data here is from patent US8175860B2.
